test system: Staphylococcus epidermidis; experiment: Antibacterial activity against Staphylococcus epidermidis ATCC 14990 at 10 uM by disc diffusion method; assay type: functional; conditions: read-out: DIZ
# zone of inhibition at 10 µM per entry
quantity-measured: zone of inhibition at 10 µM (mm)

1. O=C(O)c1cn(C2CC2)c2cc(N3CCN(Sc4ccccc4[N+](=O)[O-])CC3)c(F)cc2c1=O
23
2. CCCCCCSN1CCN(c2cc3c(cc2F)c(=O)c(C(=O)O)cn3C2CC2)CC1
26
3. O=C(O)c1cn(C2CC2)c2cc(N3CCN(Sc4ccc([N+](=O)[O-])cc4)CC3)c(F)cc2c1=O
36
4. CC(C)C(C)SN1CCN(c2cc3c(cc2F)c(=O)c(C(=O)O)cn3C2CC2)CC1 (configuration not stated)
29
5. CCCCSN1CCN(c2cc3c(cc2F)c(=O)c(C(=O)O)cn3C2CC2)CC1
34
6. CC(C)SN1CCN(c2cc3c(cc2F)c(=O)c(C(=O)O)cn3C2CC2)CC1
34
7. CCSN1CCN(c2cc3c(cc2F)c(=O)c(C(=O)O)cn3C2CC2)CC1
32
8. CSN1CCN(c2cc3c(cc2F)c(=O)c(C(=O)O)cn3C2CC2)CC1
33
9. CCC(C)SN1CCN(c2cc3c(cc2F)c(=O)c(C(=O)O)cn3C2CC2)CC1 (configuration not stated)
32
10. CCCSN1CCN(c2cc3c(cc2F)c(=O)c(C(=O)O)cn3C2CC2)CC1
37
11. O=C(O)c1cn(C2CC2)c2cc(N3CCN(Sc4ccc(Cl)cc4)CC3)c(F)cc2c1=O
29
12. O=C(O)c1cn(C2CC2)c2cc(N3CCN(Sc4ccccc4)CC3)c(F)cc2c1=O
23

====

test system: Enterococcus faecium; assay: Antibacterial activity against vancomycin-resistant Enterococcus faecium ATCC 700221 at 10 uM by disc diffusion method; assay type: functional; settings: read-out: DIZ
quantity-measured: zone of inhibition at 10 µM (mm)

1) CC(C)SN1CCN(c2cc3c(cc2F)c(=O)c(C(=O)O)cn3C2CC2)CC1
0
2) CSN1CCN(c2cc3c(cc2F)c(=O)c(C(=O)O)cn3C2CC2)CC1
0
3) O=C(O)c1cn(C2CC2)c2cc(N3CCN(Sc4ccccc4)CC3)c(F)cc2c1=O
10
4) CCCCCCSN1CCN(c2cc3c(cc2F)c(=O)c(C(=O)O)cn3C2CC2)CC1
8

====

test system: Enterococcus faecalis; assay: Antibacterial activity against vancomycin-susceptible Enterococcus faecalis ATCC 29212 at 10 uM by disc diffusion method; format: functional; details: read-out: DIZ
The reader will find reported zone of inhibition at 10 µM values listed item by item below.
quantity-measured: zone of inhibition at 10 µM (mm)

1. CCCCCCSN1CCN(c2cc3c(cc2F)c(=O)c(C(=O)O)cn3C2CC2)CC1
15
2. O=C(O)c1cn(C2CC2)c2cc(N3CCN(Sc4ccc([N+](=O)[O-])cc4)CC3)c(F)cc2c1=O
25
3. CCCCSN1CCN(c2cc3c(cc2F)c(=O)c(C(=O)O)cn3C2CC2)CC1
23
4. O=C(O)c1cn(C2CC2)c2cc(N3CCNCC3)c(F)cc2c1=O
22
5. CCCSN1CCN(c2cc3c(cc2F)c(=O)c(C(=O)O)cn3C2CC2)CC1
28
6. CC(C)SN1CCN(c2cc3c(cc2F)c(=O)c(C(=O)O)cn3C2CC2)CC1
23
7. O=C(O)c1cn(C2CC2)c2cc(N3CCN(Sc4ccccc4)CC3)c(F)cc2c1=O
20
8. CCC(C)SN1CCN(c2cc3c(cc2F)c(=O)c(C(=O)O)cn3C2CC2)CC1 (stereo not drawn)
22
9. CSN1CCN(c2cc3c(cc2F)c(=O)c(C(=O)O)cn3C2CC2)CC1
21
10. O=C(O)c1cn(C2CC2)c2cc(N3CCN(Sc4ccc(Cl)cc4)CC3)c(F)cc2c1=O
20
11. CCSN1CCN(c2cc3c(cc2F)c(=O)c(C(=O)O)cn3C2CC2)CC1
25
12. O=C(O)c1cn(C2CC2)c2cc(N3CCN(Sc4ccccc4[N+](=O)[O-])CC3)c(F)cc2c1=O
20
13. CC(C)C(C)SN1CCN(c2cc3c(cc2F)c(=O)c(C(=O)O)cn3C2CC2)CC1 (stereo not drawn)
25
